Data origin, for the record: paper PMC6354011

- System Under Test: equine serum butyrylcholinesterase (BChE, EC 3.1.1.8) (Equus caballus)
- Construct: equine serum butyrylcholinesterase (BChE, EC 3.1.1.8); purchased Sigma-Aldrich (USA); host or cells: equine serum
- Test Details: biochemical
- Type: biochemical
- Condition Label: second read; read-out: BChE IC50 (µM) Second read
Property: IC50 (µM)
Report as a plain number; the unit µM is understood.

Solved entries:
>>> numeric_readout("Cc1cccn2cc(C34CC5CC(CC(C5)C3)C4)nc12.O")
748
>>> numeric_readout("Cc1ccc2nc(-c3ccc(-c4ccccc4)cc3)cn2c1")
477
>>> numeric_readout("Cc1cccn2cc(-c3ccc(-c4ccccc4)cc3)nc12")
322

# context switch: different compound, same IC50
Ask: Under equine serum butyrylcholinesterase (BChE, EC 3.1.1.8) (Equus caballus): IC50 value of Cc1cccn2cc(-c3ccc(Cl)c(Cl)c3)nc12 ?
Reply: 177

---

Each entry below carries its reported IC50.
- System Under Test: Electric eel acetylcholinesterase (AChE, EC 3.1.1.7) (Electrophorus electricus)
- Construct: purchased Sigma-Aldrich (USA)
- Sequence (O42275 24-633): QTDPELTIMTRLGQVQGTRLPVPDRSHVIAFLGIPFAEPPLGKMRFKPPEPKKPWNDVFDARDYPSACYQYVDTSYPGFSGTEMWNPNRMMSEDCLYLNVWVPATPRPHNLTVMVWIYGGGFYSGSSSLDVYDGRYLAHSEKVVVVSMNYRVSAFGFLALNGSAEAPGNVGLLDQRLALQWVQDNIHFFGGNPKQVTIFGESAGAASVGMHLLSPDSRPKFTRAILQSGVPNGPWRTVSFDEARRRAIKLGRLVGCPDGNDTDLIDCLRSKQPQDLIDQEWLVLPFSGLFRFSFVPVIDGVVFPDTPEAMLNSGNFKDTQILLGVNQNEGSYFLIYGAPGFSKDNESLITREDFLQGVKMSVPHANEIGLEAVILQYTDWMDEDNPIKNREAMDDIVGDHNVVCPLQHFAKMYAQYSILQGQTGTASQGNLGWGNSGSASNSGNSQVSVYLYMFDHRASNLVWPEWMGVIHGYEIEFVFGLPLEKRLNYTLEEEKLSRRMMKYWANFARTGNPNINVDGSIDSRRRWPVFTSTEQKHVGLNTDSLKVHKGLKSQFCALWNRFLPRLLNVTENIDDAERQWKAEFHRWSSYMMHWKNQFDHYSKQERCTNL
- Test Details: biochemical
- Condition Label: average of three reads; read-out: AChE IC50 (µg/mL) Average (converted)
Report as a plain number; the unit µM is understood.

Ask: Under Electric eel acetylcholinesterase (AChE, EC 3.1.1.7) (Electrophorus electricus): IC50 value of c1ccc(-c2ccc(-c3cn4ccccc4n3)cc2)cc1 ?
Reply: 208

Ask: Under Electric eel acetylcholinesterase (AChE, EC 3.1.1.7) (Electrophorus electricus): IC50 value of Cc1ccc2nc(-c3ccc(-c4ccccc4)cc3)cn2c1 ?
Reply: 79.1

Ask: Under Electric eel acetylcholinesterase (AChE, EC 3.1.1.7) (Electrophorus electricus): IC50 value of Cc1ccn2cc(C34CC5CC(CC(C5)C3)C4)nc2c1.O ?
Reply: 252

---

- System Under Test: equine serum butyrylcholinesterase (BChE, EC 3.1.1.8) (Equus caballus)
- Construct: equine serum butyrylcholinesterase (BChE, EC 3.1.1.8); purchased Sigma-Aldrich (USA); host or cells: equine serum
- Test Details: biochemical
- Assay type: biochemical
- Condition Label: average of three reads; read-out: BChE IC50 (µg/mL) Average (converted)
Each entry below carries its reported IC50.
Report as a plain number; the unit µM is understood.

Solved entries:
>>> numeric_readout("Cc1cccn2cc(C34CC5CC(CC(C5)C3)C4)nc12.O [Compound 2b]")
660
>>> numeric_readout("Cc1cccn2cc(-c3ccc(Cl)c(Cl)c3)nc12 [Compound 2k]")
191
>>> numeric_readout("Cc1ccc2nc(-c3ccc(-c4ccccc4)cc3)cn2c1 [Compound 2h]")
496

# context switch: different compound, same IC50
Ask: Item Cc1cccn2cc(-c3ccc(-c4ccccc4)cc3)nc12 [Compound 2g] has what recorded IC50?
Reply: 315

---

Each entry below carries its reported IC50.
- System Under Test: equine serum butyrylcholinesterase (BChE, EC 3.1.1.8) (Equus caballus, UniProt P81908)
- Construct: equine serum butyrylcholinesterase (BChE, EC 3.1.1.8); purchased Sigma-Aldrich (USA); host or cells: equine serum
- Sequence (P81908 whole entry): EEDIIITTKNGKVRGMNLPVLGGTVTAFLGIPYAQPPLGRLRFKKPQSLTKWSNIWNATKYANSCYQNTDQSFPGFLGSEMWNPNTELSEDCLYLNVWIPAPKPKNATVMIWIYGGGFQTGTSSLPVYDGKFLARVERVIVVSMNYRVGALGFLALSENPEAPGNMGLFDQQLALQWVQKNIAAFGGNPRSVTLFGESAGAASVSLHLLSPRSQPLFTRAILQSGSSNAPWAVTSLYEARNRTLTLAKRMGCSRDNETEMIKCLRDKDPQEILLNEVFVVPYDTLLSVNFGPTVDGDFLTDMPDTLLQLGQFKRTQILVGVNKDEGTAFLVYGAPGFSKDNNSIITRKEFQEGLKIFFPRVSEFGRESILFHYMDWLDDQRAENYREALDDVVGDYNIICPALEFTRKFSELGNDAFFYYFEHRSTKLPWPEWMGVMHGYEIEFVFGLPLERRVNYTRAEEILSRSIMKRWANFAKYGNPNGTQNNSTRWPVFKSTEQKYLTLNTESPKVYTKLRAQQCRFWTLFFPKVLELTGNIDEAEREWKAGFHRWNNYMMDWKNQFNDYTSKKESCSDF
- Test Details: biochemical
- Assay type: biochemical
- Condition Label: first read; read-out: BChE IC50 (µg/mL) First read (converted)

>>> result("Cc1cccn2cc(-c3ccc(Cl)c(Cl)c3)nc12 [Compound 2k]")
"224 µM"
>>> result("Cc1cccn2cc(C34CC5CC(CC(C5)C3)C4)nc12.O [Compound 2b]")
"637 µM"
>>> result("Cc1cccn2cc(-c3ccc(-c4ccccc4)cc3)nc12 [Compound 2g]")
"310 µM"

Ask: Item Cc1ccc2nc(-c3ccc(-c4ccccc4)cc3)cn2c1 [Compound 2h] has what recorded IC50?
Reply: 484 µM
